Source listed as paper PMC7144022.

test system: BVDV NADL virus; test: CPE-based antiviral assay, BVDV NADL in MDBK cells (MTS/PMS); conditions: selectivity index, CC50 vs EC50
Please respond with 1 (yes) when measured S.I. is strictly beneath 300, and with 0 (no) in all other cases.

Use these answered entries as a reference point.
molecule: Cc1ccc2nc(NC(=O)c3ccnc4ccccc34)sc2c1 [CSFC-17, Cc1ccc2nc(sc2c1)NC(=O)c4ccnc3ccccc34]
test-target: BVDV NADL virus
group: 1 (yes)
--
molecule: O=C(Nc1ccn(-c2ccccc2)n1)c1cc(-c2ccccc2F)nc2ccccc12
test-target: BVDV NADL virus
group: 0 (no)
--
molecule: COc1ccc2nc(NC(=O)c3cc(-c4ccco4)nc4ccc(OC)cc34)sc2c1
test-target: BVDV NADL virus
group: 1 (yes)
--
molecule: Cc1cccc2sc(NC(=O)c3cc(-c4ccccc4F)nc4c(F)cccc34)nc12
test-target: BVDV NADL virus
group: 1 (yes)
--
molecule: O=C(Nc1ccn(-c2ccccc2F)n1)c1cc(-c2ccccc2)nc2ccccc12
test-target: BVDV NADL virus
group: 1 (yes)

Decide: S.I. of CCOc1ccc2nc(NC(=O)c3cc(-c4ccco4)nc4ccccc34)sc2c1 strictly below 300? 1 (yes)

Decide: S.I. of O=C(Nc1ccn(-c2ccccc2)n1)c1cc(-c2cc3ccccc3o2)nc2ccccc12 strictly below 300? 0 (no)

Decide: S.I. of O=C(Nc1ccn(-c2ccccc2)n1)c1cc(-c2cnccn2)nc2ccccc12 strictly below 300? 0 (no)

====

test: Cytotoxicity assay, proliferation of exponentially growing MDBK cells (MTS/PMS); assay type: cell-based, bovine; settings: bovine
assay-endpoint: CC50 at 5 days

Please review the following examples before continuing.
smiles-text: Cc1c(-c2ccco2)nc2ccccc2c1C(=O)Nc1nc2c(C)cccc2s1
CC50 at 5 days: > 100 µM

smiles-text: O=C(Nc1ccn(-c2ccccc2)n1)c1cc(-c2cccc3ccccc23)nc2ccccc12
CC50 at 5 days: > 100 µM

For each of the compounds below, state CC50 at 5 days.
1. O=C(Nc1nc2ccc(Cl)cc2s1)c1cc(-c2ccccc2)nc2ccccc12
2. O=C(Nc1nc2ccc(C(F)(F)F)cc2s1)c1cc(-c2ccccc2)nc2ccccc12
3. O=C(Nc1nc(-c2ccccc2)cs1)c1cc(-c2ccccc2)nc2ccccc12

> 100 µM
> 100 µM
> 100 µM

====

experiment: Cytotoxicity assay, proliferation of exponentially growing MDBK cells (MTS/PMS); type: cell-based, bovine; details: bovine
Would you kindly list CC50 at 5 days for each of these molecules?

molecule: O=C(Nc1ccn(-c2ccccc2)n1)c1cc(-c2ccc(Cl)s2)nc2ccccc12 [CSFC-53]
CC50 at 5 days: > 100 µM
--
molecule: O=C(Nc1ccn(-c2ccc(F)cc2)n1)c1cc(-c2cccnc2)nc2ccccc12 [CSFC-129]
CC50 at 5 days: 68 µM
--
molecule: Cc1ccc2sc(NC(=O)c3cc(-c4ccccc4)nc4ccccc34)nc2c1C [CSFC-145]
CC50 at 5 days: > 100 µM
--
molecule: O=C(Nc1ccn(-c2ccccc2)n1)c1cc(-c2cccs2)nc2ccccc12 [CSFC-47]
CC50 at 5 days: > 100 µM
--
molecule: O=C(Nc1ccn(-c2ccccc2)n1)c1cc(-c2ccncc2)nc2ccccc12 [CSFC-121]
CC50 at 5 days: > 100 µM

For each of the molecules below, state CC50 at 5 days.
1. CS(=O)(=O)c1ccc2nc(NC(=O)c3cc(-c4ccccc4)nc4ccccc34)sc2c1 [CSFC-56]
2. Cc1ccc(-c2cc(C(=O)Nc3ccn(-c4ccccc4)n3)c3ccccc3n2)o1 [CSFC-51]
3. COc1cccc2sc(NC(=O)c3cc(-c4cccs4)nc4ccccc34)nc12 [CSFC-89]
4. COc1ccc2nc(NC(=O)c3cc(-c4ccco4)nc4c(F)cccc34)sc2c1 [CSFC-83]

1. > 100 µM
2. > 100 µM
3. > 100 µM
4. > 100 µM
